Conditions: in n-octanol, 315.15 K
reportedEndpoint: solubility (mole fraction)

Example entries and their recorded answers appear below.
molecule	dataValue
Cc1ccc(NS(=O)(=O)c2ccc(N)cc2)c(Cl)c1	0.00259
Nc1ccc(S(=O)(=O)Nc2ccc(Cl)c(Cl)c2)cc1	0.000617

(P) Cc1cc(N)ccc1S(=O)(=O)Nc1ccccc1[N+](=O)[O-]
(Q) Cc1ccc(Cl)cc1NS(=O)(=O)c1ccc(N)cc1
(R) Nc1ccc(S(=O)(=O)Nc2ccccc2Cl)c(Cl)c1
(S) Cc1cc(Cl)ccc1NS(=O)(=O)c1ccc(N)cc1
Ask | Please list these compounds in decreasing order of solubility (mole fraction). Give the labels in the order requested.
Reply | S, Q, P, R
